# TESTED SYSTEM: T1, BSA (bovine serum albumin) (bovine (송아지 혈청 알부민), UniProt P02769 25-607)
# T1 construct: Negative control antigen of the phage ELISA; also called 송아지 혈청 알부민
# T1 sequence (P02769 25-607 limits assumed): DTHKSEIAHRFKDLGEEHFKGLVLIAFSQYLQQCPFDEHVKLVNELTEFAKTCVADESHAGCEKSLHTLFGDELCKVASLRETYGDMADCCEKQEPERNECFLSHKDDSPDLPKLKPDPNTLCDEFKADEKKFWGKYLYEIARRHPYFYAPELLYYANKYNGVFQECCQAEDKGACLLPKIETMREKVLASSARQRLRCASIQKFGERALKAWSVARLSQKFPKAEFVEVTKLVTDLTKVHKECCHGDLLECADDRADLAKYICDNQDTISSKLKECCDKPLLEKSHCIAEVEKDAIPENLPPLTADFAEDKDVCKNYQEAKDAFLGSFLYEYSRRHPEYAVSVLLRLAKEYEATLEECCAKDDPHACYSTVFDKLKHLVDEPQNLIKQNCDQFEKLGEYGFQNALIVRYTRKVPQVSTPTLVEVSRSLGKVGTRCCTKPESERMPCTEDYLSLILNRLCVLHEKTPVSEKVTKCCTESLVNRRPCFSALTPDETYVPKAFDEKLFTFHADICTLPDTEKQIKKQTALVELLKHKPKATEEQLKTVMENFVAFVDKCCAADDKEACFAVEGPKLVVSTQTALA
# PROCEDURE TEXT: phage ELISA, 1% BSA coated, anti-M13 peroxidase, OD 492 nm

| BINDER | binding result |
| --- | --- |
| SC06-252 (scFv) scFv: EVQLVETGGGLVQPGGSLRLSCAASGLTFSSYAMSWVRQAPGKGLEWVSALSGSTTFYADSVKGRFTISRDNAKNTLYLQMNSLRAEDTAVYYCARGNYYGMDVWGQGTTVTVSSGTGGSGGTGSGTGGSTSYVLTQPPSASGTPGQRVTISCSGSSSNIGKFYVYWYQQFPGAAPKLLIYSNNQRPSGVPDRFSGSKSGTSASLAISGLQSEDEADYYCAAWDGSLNGYVFGTGTKVTVL | no binding |
| SC05-157 (scFv) scFv: EVQLVESGAEVKKPGESLKISCKGSGYSFTNYWIGWVRQMPGKGLEWMGIVYPGDSDTRYSPSFQGQVTISADKSISTAYLQWSSLKASDTAVYYCARRMAVAGSDAFDIWGQGTMVTVSSGTGGSGGTGSGTGGSTQAVLTQPSSASGTPGQTVTISCSGSTSNIGSHNVNWYQHLPGTAPKLLIYINNKRPSGVPDRFSGSKSGSSASLAISGLQSEDEADYYCAAWDDSLRRPVFGGGTQLTVL | no binding |
| SC06-389 (scFv) scFv: QVQLVQSGAEVKKPGESLKISCKGSGYSFSTYWIGWVRQMPGKGLEWMGIIYPGDSDTRYSPSFQGQVTISADKSISTAHLQWSSLKASDTAMYYCARPGPRGYNHGFDYWGQGTLVTVSSGTGGSGGTGSGTGGSTSSELTQDPAESVALGQTVKITCQGDSLRRYYASWYQQKPGQAPVLVIYGKNNRPSGIPDRFSGSRSGNTASLTITGAQAEDEAVYYCNSRDSSGNSVVFGGGTKLTVL | no binding |
